# Test system: P. falciparum DD2 (chloroquine-resistant)
# EXPERIMENT NOTES: Anti-malarial activity, P. falciparum DD2 culture, 72 hour, DNA content by flow cytometry
# Type: cell-based
# ASSAY CONDITIONS: Plasmodium falciparum, synchronized ring-stage parasites
pIC50: −log10 of the molar value.
REPORTED ENDPOINT: pIC50

1. N=C(N)NCCCCC(=O)Nc1cc(C(F)(F)F)cc(NC(=O)c2cc(C(=O)Nc3cc(C(F)(F)F)cc(NC(=O)CCCCNC(=N)N)c3SCCC(=O)O)ncn2)c1SCCC(=O)O
2. NCCSc1ccc(C(F)(F)F)cc1C(=O)Nc1ccc(-c2ccc(NC(=O)c3cc(C(F)(F)F)ccc3SCCN)cc2)cc1
3. Fc1cc(NC2CCNCC2)cc(Oc2ccc(Oc3cc(F)cc(NC4CCNCC4)c3)cc2)c1
Arrange the 3 compounds from largest to smallest pIC50. The reply should contain the labels ordered as requested.
1, 2, 3

====

# EXPERIMENT NOTES: in vitro
# Format: cell-based
REPORTED ENDPOINT: EC50 (µg/mL)

I. N=C(N)NCCCc1cccc(-c2ccc3c4ccc(-c5cccc(CCCNC(=N)N)c5)cc4n(CCCNC(=N)N)c3c2)c1
II. c1cc(N2CCNCC2)ccc1-c1ccc(-c2ccc(N3CCNCC3)cc2)o1
III. COc1ccc(C(=O)Nc2cc(C(F)(F)F)cc(NC(=O)c3cc(C(=O)Nc4cc(C(F)(F)F)cc(NC(=O)c5ccc(OC)cc5)c4SCCN)ncn3)c2SCCN)cc1
Order the entries above from lowest to highest EC50. The reply should contain the labels ordered as requested.
I, II, III
(I: 6 µg/mL, II: 28 µg/mL, III: 81 µg/mL)

I. CN1CC[C@@H](Oc2ccc(NC(=O)c3cc(C(=O)Nc4ccc(O[C@@H]5CCN(C)C5)c(C(F)(F)F)c4)ncn3)cc2C(F)(F)F)C1
II. CC1(C)c2cc(-c3cccc(CCNC(=N)N)c3)ccc2-c2ccc(-c3cccc(CCNC(=N)N)c3)cc21
III. O=C(Nc1ccc(N2CCNCC2)cc1)c1cc(C(=O)Nc2ccc(N3CCNCC3)cc2)ncn1
IV. NC1CCC(Oc2ccc(NC(=O)c3cc(C(=O)Nc4ccc(OC5CCC(N)CC5)cc4)ncn3)cc2)CC1 (centres unmarked)
Task for the reader: rank each entry by its EC50, from the minimum upward. The reply should contain the labels ordered as requested.
II, IV, III, I
(II: 2 µg/mL, IV: 24 µg/mL, III: 48 µg/mL, I: 88 µg/mL)

1. N=C(N)N1CCN(c2ccc(-c3cc(-c4ccc(N5CCN(C(=N)N)CC5)cc4)ncn3)cc2)CC1
2. N=C(N)NCCCCOc1cc(OCCCCNC(=N)N)c(C(F)(F)F)cc1NC(=O)Nc1cc(C(F)(F)F)c(OCCCCNC(=N)N)cc1OCCCCNC(=N)N
Param metric = EC50; output whichever of 1 , 2 has the minimum value. Please indicate the selected item by its label.
2

====

# Tested on: P. falciparum 3D7 (chloroquine-sensitive)
# EXPERIMENT NOTES: Anti-malarial activity, P. falciparum 3D7 culture, 72 hour, DNA content by flow cytometry
# Assay type: cell-based
# ASSAY CONDITIONS: synchronized ring-stage parasites
pIC50: −log10 of the molar value.
REPORTED ENDPOINT: pIC50

1. O=C(Nc1ccc(O[C@@H]2CCNC2)c(C(F)(F)F)c1)c1cc(C(=O)Nc2ccc(O[C@@H]3CCNC3)c(C(F)(F)F)c2)ncn1
2. O=C(Nc1ccc(OC2CCNC2)c(F)c1)c1cc(C(=O)Nc2ccc(OC3CCNC3)c(F)c2)ncn1 (stereo not drawn)
3. NCCc1cccc(-c2cncc(-c3ccc(-c4cncc(-c5cccc(CCN)c5)c4)s3)c2)c1
4. N=C(N)NCCc1cccc(NC(=O)Nc2cccc(CCNC(=N)N)c2)c1
Order the entries above from lowest to highest pIC50. The reply should contain the labels ordered as requested.
3, 4, 2, 1
(3: 6.29, 4: 6.49, 2: 7.18, 1: 7.39)

A. CCn1c2ccc(C3CCN(C(=N)N)CC3)cc2c2cc(C3CCN(C(=N)N)CC3)ccc21
B. CC(C)(C)c1cc(N)c(SCCN)c(NC(=O)c2cccc(C(=O)Nc3cc(C(C)(C)C)cc(N)c3SCCN)n2)c1
C. CN(C)C1CCN(c2ccc(NC(=O)c3cc(C(=O)Nc4ccc(N5CCC(N(C)C)CC5)cc4)ncn3)cc2)CC1
Please list these compounds in decreasing order of pIC50. The reply should contain the labels ordered as requested.
C, A, B
(C: 7.46, A: 7.07, B: 6.14)
